Experiment: PBS stability assay at 37 °C via LC-MS/MS
Assay type: physicochemical
Conditions: phosphate-buffered saline (DPBS), pH 7.03; PBS, 37 °C, 2 h; read-out: % Remaining @ 2h, PBS, 37 °C (Tables S25, S26)
remaining at 2 h, 3 µM: recorded values
# number only, unit % dropped from output

Completed entries (count: 4):
- CNCCN(CCCN1CCOCC1)C(=O)O/N=C(\C)[C@H]1CC[C@H]2[C@@H]3CCC4=CC(=O)CC[C@]4(C)[C@H]3CC[C@]12C.O=C(O)C(F)(F)F [20i]: 77
- CNCCN(CC(C)C)C(=O)O/N=C(\C)[C@H]1CC[C@H]2[C@@H]3CCC4=CC(=O)CC[C@]4(C)[C@H]3CC[C@]12C.O=C(O)C(F)(F)F [20f]: 55
- CNCCN(C)C(=O)O/N=C(\C)[C@H]1CC[C@H]2[C@@H]3CCC4=CC(=O)CC[C@]4(C)[C@H]3CC[C@]12C [20a]: 77
- CNCCN(CCn1ccnc1)C(=O)O/N=C(\C)[C@H]1CC[C@H]2[C@@H]3CCC4=CC(=O)CC[C@]4(C)[C@H]3CC[C@]12C [20k]: 70

stdin: Look at this compound and give its reported remaining at 2 h, 3 µM. CNCCN(C(=O)O/N=C(\C)[C@H]1CC[C@H]2[C@@H]3CCC4=CC(=O)CC[C@]4(C)[C@H]3CC[C@]12C)C(C)C.O=C(O)C(F)(F)F [20c]
stdout: 53

stdin: Data request, read-out remaining at 2 h, 3 µM, for CNCCN(C(=O)O/N=C(\C)[C@H]1CC[C@H]2[C@@H]3CCC4=CC(=O)CC[C@]4(C)[C@H]3CC[C@]12C)C1CC1.O=C(O)C(F)(F)F [20b]
stdout: 68

stdin: State the recorded remaining at 2 h, 3 µM for this entry: CNCCN(C(=O)O/N=C(\C)[C@H]1CC[C@H]2[C@@H]3CCC4=CC(=O)CC[C@]4(C)[C@H]3CC[C@]12C)C1CCCC1.O=C(O)C(F)(F)F [20e]
stdout: 34

stdin: Given the entry CNCCN(C(=O)O/N=C(\C)[C@H]1CC[C@H]2[C@@H]3CCC4=CC(=O)CC[C@]4(C)[C@H]3CC[C@]12C)C1CCC1.O=C(O)C(F)(F)F [20d] , report its measured remaining at 2 h, 3 µM.
stdout: 44

* * *

Experiment: Plasma stability assay at 37 °C via LC-MS/MS, human plasma;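 note: prodrugs at 3 µM incubated in human plasma at 37 °C, intact prodrug quantified by LC-MS/MS over time, values are means of duplicate runs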
Type: in vitro ADME
Conditions: human, plasma, unit not given (h in Table S23), read-out: t1/2 of allopregnanolone prodrugs in human plasma at 37 °C (Table S21) (converted)
measure: half-life at 3 µM (min)
Kindly provide the numeric value in min only, without the unit symbol.

Before answering, review these 5 worked examples.
* CNCCN(C(=O)O/N=C(\C)[C@H]1CC[C@H]2[C@@H]3CCC4C[C@H](O)CC[C@]4(C)[C@H]3CC[C@]12C)C(C)C.O=C(O)C(F)(F)F (stereo partly drawn) [21c] | 30.6
* CNCCN(C)C(=O)O/N=C(\C)[C@H]1CC[C@H]2[C@@H]3CCC4C[C@H](O)CC[C@]4(C)[C@H]3CC[C@]12C.O=C(O)C(F)(F)F (stereo partly drawn) [21a] | 35.4
* C/C(=N\OC(=O)N(C)C[C@@H]1CCCN1)[C@H]1CC[C@H]2[C@@H]3CCC4C[C@H](O)CC[C@]4(C)[C@H]3CC[C@]12C (stereo partly drawn) [21l] | 21.6
* CNCCN(CCn1ccnc1)C(=O)O/N=C(\C)[C@H]1CC[C@H]2[C@@H]3CCC4C[C@H](O)CC[C@]4(C)[C@H]3CC[C@]12C (stereo partly drawn) [21k] | 48.6
* CNCCN(C(=O)O/N=C(\C)[C@H]1CC[C@H]2[C@@H]3CCC4C[C@H](O)CC[C@]4(C)[C@H]3CC[C@]12C)C1CCC1.O=C(O)C(F)(F)F (stereo partly drawn) [21d] | 45.6

API: the following record is the query input.
stdin: May I ask what half-life at 3 µM has been recorded for CNCCN(C(=O)O/N=C(\C)[C@H]1CC[C@H]2[C@@H]3CCC4C[C@H](O)CC[C@]4(C)[C@H]3CC[C@]12C)C1CC1.O=C(O)C(F)(F)F (stereo partly drawn) [21b] ?
stdout: 43.8
